What Uptake in Lungs was measured for each of the following?
- Tested on: MDA-MB-231 tumors
- experimentalDetails: in vivo
- Format: in vivo, nude mice
- details: female, nude, mouse, in vivo, 1 h
Numbered stars: 1 amine (or outer) side, 2 acyl side, 3 side chain; on linkers, the order of the positions; unused ones are H or OH. Square brackets hold non-standard residues; d marks the D form. Peptide text beside a SMILES is read from it. * marks the point of attachment. DOTA = O=C(O)CN1CCN(CC(=O)O)CCN(CC(=O)*)CCN(CC(=O)O)CC1; Cha = N[C@@H](CC1CCCCC1)C(=O)O; X1 = O=C(CCC(=O)[*:2])CN[*:1]; Nle = CCCC[C@H](N)C(=O)O; Ahx = NCCCCCC(=O)O

Request: Using the record for CCCC[C@H](NC(=O)[C@H](Cc1c[nH]cn1)NC(=O)[C@H](CC1CCCCC1)NC(=O)[C@@H](NC(=O)[C@H](C)NC(=O)[C@H](Cc1c[nH]c2ccccc12)NC(=O)[C@H](CCC(N)=O)NC(=O)[C@H](CS)NC(=O)CNC(=O)CNC(=O)CCCCCNC(=O)CN1CCN(CC(=O)O)CCN(CC(=O)O)CCN(CC(=O)O)CC1)C(C)C)C(=O)N[C@@H](CCSC)C(N)=O [^68Ga-DOTA-Ahx-BN Cyclen, metal not drawn] ({DOTA-Ahx}-GGCQWAV[Cha]H[Nle]M-NH2) , report its Uptake in Lungs.
Result: 0.55 ± 0.10 % ID/g

Request: Using the record for CCCC[C@H](NC(=O)[C@H](Cc1c[nH]cn1)NC(=O)[C@H](CC1CCCCC1)NC(=O)[C@@H](NC(=O)[C@H](C)NC(=O)[C@H](Cc1c[nH]c2ccccc12)NC(=O)[C@H](CCC(N)=O)NC(=O)[C@H](CS)NC(=O)CNC(=O)CNC(=O)CCC(=O)CNC(=O)CN1CCN(CC(=O)O)CCN(CC(=O)O)CCN(CC(=O)O)CC1)C(C)C)C(=O)N[C@@H](CCSC)C(N)=O [^68Ga-DOTA-ALA-BN Tris-, metal not drawn] ({DOTA}-[X1]GGCQWAV[Cha]H[Nle]M-NH2) , report its Uptake in Lungs.
Result: 2.35 ± 0.33 % ID/g

Request: Using the record for CCCC[C@H](NC(=O)[C@H](Cc1c[nH]cn1)NC(=O)[C@H](CC1CCCCC1)NC(=O)[C@@H](NC(=O)[C@H](C)NC(=O)[C@H](Cc1c[nH]c2ccccc12)NC(=O)[C@H](CCC(N)=O)NC(=O)[C@H](CS)NC(=O)CNC(=O)CNC(=O)CCCCCNC(=O)CN1CCN(CC(=O)O)CCN(CC(=O)O)CCN(CC(=O)O)CC1)C(C)C)C(=O)N[C@@H](CCSC)C(N)=O [^68Ga-DOTA-Ahx-BN Tris-, metal not drawn] ({DOTA-Ahx}-GGCQWAV[Cha]H[Nle]M-NH2) , report its Uptake in Lungs.
Result: 1.86 ± 0.14 % ID/g

----------
- testTarget: BN/GRP receptor-positive T47D human breast cancer cells (Homo sapiens, UniProt P30550)
- Construct: BN/GRP receptor-positive MDA-MB-231, MCF7, T47D human breast cancer, and PC3 human prostate cancer lines; host or cells: MDA-MB-231, MCF7, T47D (human breast cancer), PC3 (human prostate cancer); intact cells
- experimentalDetails: Saturation binding assay on T47D cells
- details: n = 3-5 experiments, SD < 15%
- Method: The cell binding of ^68Ga-radiolabeled peptides into BN/GRP receptor-positive MDA-MB-231, MCF7, T47D human breast cancer, and PC3 human prostate cancer lines (American Type Culture Collection, Rockville, MD, USA) was performed according to the method described previously. […] The initial concentrations of ^68Ga-labeled peptides were determined according to a well-established HPLC technique with simultaneous detection by UV absorbance. […]
Numbered stars: 1 amine (or outer) side, 2 acyl side, 3 side chain; on linkers, the order of the positions; unused ones are H or OH. Square brackets hold non-standard residues; d marks the D form. Peptide text beside a SMILES is read from it. * marks the point of attachment. DOTA = O=C(O)CN1CCN(CC(=O)O)CCN(CC(=O)*)CCN(CC(=O)O)CC1; Cha = N[C@@H](CC1CCCCC1)C(=O)O; X1 = O=C(CCC(=O)[*:2])CN[*:1]; Nle = CCCC[C@H](N)C(=O)O; Ahx = NCCCCCC(=O)O
measure: Bmax (apparent number of binding sites per cell)

Request: Using the record for CCCC[C@H](NC(=O)[C@H](Cc1c[nH]cn1)NC(=O)[C@H](CC1CCCCC1)NC(=O)[C@@H](NC(=O)[C@H](C)NC(=O)[C@H](Cc1c[nH]c2ccccc12)NC(=O)[C@H](CCC(N)=O)NC(=O)[C@H](CS)NC(=O)CNC(=O)CNC(=O)CCC(=O)CNC(=O)CN1CCN(CC(=O)O)CCN(CC(=O)O)CCN(CC(=O)O)CC1)C(C)C)C(=O)N[C@@H](CCSC)C(N)=O [^68Ga-DOTA-ALA-BN Tris-, metal not drawn] ({DOTA}-[X1]GGCQWAV[Cha]H[Nle]M-NH2) , report its Bmax (apparent number of binding sites per cell).
Result: 9.68 × 10^4 sites/cell

Request: Using the record for CCCC[C@H](NC(=O)[C@H](Cc1c[nH]cn1)NC(=O)[C@H](CC1CCCCC1)NC(=O)[C@@H](NC(=O)[C@H](C)NC(=O)[C@H](Cc1c[nH]c2ccccc12)NC(=O)[C@H](CCC(N)=O)NC(=O)[C@H](CS)NC(=O)CNC(=O)CNC(=O)CCCCCNC(=O)CN1CCN(CC(=O)O)CCN(CC(=O)O)CCN(CC(=O)O)CC1)C(C)C)C(=O)N[C@@H](CCSC)C(N)=O [^68Ga-DOTA-Ahx-BN Cyclen, metal not drawn] ({DOTA-Ahx}-GGCQWAV[Cha]H[Nle]M-NH2) , report its Bmax (apparent number of binding sites per cell).
Result: 4.75 × 10^5 sites/cell

----------
What Bmax (apparent number of binding sites per cell) was measured for each of the following?
- testTarget: BN/GRP receptor-positive MCF7 human breast cancer cells (Homo sapiens)
- Construct: BN/GRP receptor-positive MDA-MB-231, MCF7, T47D human breast cancer, and PC3 human prostate cancer lines; host or cells: MDA-MB-231, MCF7, T47D (human breast cancer), PC3 (human prostate cancer); intact cells
- experimentalDetails: Saturation binding assay on MCF7 cells
- details: n = 3-5 experiments, SD < 15%
Numbered stars: 1 amine (or outer) side, 2 acyl side, 3 side chain; on linkers, the order of the positions; unused ones are H or OH. Square brackets hold non-standard residues; d marks the D form. Peptide text beside a SMILES is read from it. * marks the point of attachment. DOTA = O=C(O)CN1CCN(CC(=O)O)CCN(CC(=O)*)CCN(CC(=O)O)CC1; Cha = N[C@@H](CC1CCCCC1)C(=O)O; X1 = O=C(CCC(=O)[*:2])CN[*:1]; 4Abz = Nc1ccc(C(=O)O)cc1; Nle = CCCC[C@H](N)C(=O)O; Ahx = NCCCCCC(=O)O

Request: Using the record for CCCC[C@H](NC(=O)[C@H](Cc1c[nH]cn1)NC(=O)[C@H](CC1CCCCC1)NC(=O)[C@@H](NC(=O)[C@H](C)NC(=O)[C@H](Cc1c[nH]c2ccccc12)NC(=O)[C@H](CCC(N)=O)NC(=O)[C@H](CS)NC(=O)CNC(=O)CNC(=O)c1ccc(NC(=O)CN2CCN(CC(=O)O)CCN(CC(=O)O)CCN(CC(=O)O)CC2)cc1)C(C)C)C(=O)N[C@@H](CCSC)C(N)=O [^68Ga-DOTA-Abz-BN Tris-, metal not drawn] ({DOTA-4Abz}-GGCQWAV[Cha]H[Nle]M-NH2) , report its Bmax (apparent number of binding sites per cell).
Result: 4.86 × 10^5 sites/cell

Request: Using the record for CCCC[C@H](NC(=O)[C@H](Cc1c[nH]cn1)NC(=O)[C@H](CC1CCCCC1)NC(=O)[C@@H](NC(=O)[C@H](C)NC(=O)[C@H](Cc1c[nH]c2ccccc12)NC(=O)[C@H](CCC(N)=O)NC(=O)[C@H](CS)NC(=O)CNC(=O)CNC(=O)CCCCCNC(=O)CN1CCN(CC(=O)O)CCN(CC(=O)O)CCN(CC(=O)O)CC1)C(C)C)C(=O)N[C@@H](CCSC)C(N)=O [^68Ga-DOTA-Ahx-BN Cyclen, metal not drawn] ({DOTA-Ahx}-GGCQWAV[Cha]H[Nle]M-NH2) , report its Bmax (apparent number of binding sites per cell).
Result: 6.90 × 10^5 sites/cell

Request: Using the record for CCCC[C@H](NC(=O)[C@H](Cc1c[nH]cn1)NC(=O)[C@H](CC1CCCCC1)NC(=O)[C@@H](NC(=O)[C@H](C)NC(=O)[C@H](Cc1c[nH]c2ccccc12)NC(=O)[C@H](CCC(N)=O)NC(=O)[C@H](CS)NC(=O)CNC(=O)CNC(=O)CCC(=O)CNC(=O)CN1CCN(CC(=O)O)CCN(CC(=O)O)CCN(CC(=O)O)CC1)C(C)C)C(=O)N[C@@H](CCSC)C(N)=O [^68Ga-DOTA-ALA-BN Cyclen, metal not drawn] ({DOTA}-[X1]GGCQWAV[Cha]H[Nle]M-NH2) , report its Bmax (apparent number of binding sites per cell).
Result: 2.11 × 10^5 sites/cell

Request: Using the record for CCCC[C@H](NC(=O)[C@H](Cc1c[nH]cn1)NC(=O)[C@H](CC1CCCCC1)NC(=O)[C@@H](NC(=O)[C@H](C)NC(=O)[C@H](Cc1c[nH]c2ccccc12)NC(=O)[C@H](CCC(N)=O)NC(=O)[C@H](CS)NC(=O)CNC(=O)CNC(=O)c1ccc(NC(=O)CN2CCN(CC(=O)O)CCN(CC(=O)O)CCN(CC(=O)O)CC2)cc1)C(C)C)C(=O)N[C@@H](CCSC)C(N)=O [^68Ga-DOTA-Abz-BN Cyclen, metal not drawn] ({DOTA-4Abz}-GGCQWAV[Cha]H[Nle]M-NH2) , report its Bmax (apparent number of binding sites per cell).
Result: 5.12 × 10^5 sites/cell

Request: Using the record for CCCC[C@H](NC(=O)[C@H](Cc1c[nH]cn1)NC(=O)[C@H](CC1CCCCC1)NC(=O)[C@@H](NC(=O)[C@H](C)NC(=O)[C@H](Cc1c[nH]c2ccccc12)NC(=O)[C@H](CCC(N)=O)NC(=O)[C@H](CS)NC(=O)CNC(=O)CNC(=O)CCCCCNC(=O)CN1CCN(CC(=O)O)CCN(CC(=O)O)CCN(CC(=O)O)CC1)C(C)C)C(=O)N[C@@H](CCSC)C(N)=O [^68Ga-DOTA-Ahx-BN Tris-, metal not drawn] ({DOTA-Ahx}-GGCQWAV[Cha]H[Nle]M-NH2) , report its Bmax (apparent number of binding sites per cell).
Result: 6.22 × 10^5 sites/cell

Request: Using the record for CCCC[C@H](NC(=O)[C@H](Cc1c[nH]cn1)NC(=O)[C@H](CC1CCCCC1)NC(=O)[C@@H](NC(=O)[C@H](C)NC(=O)[C@H](Cc1c[nH]c2ccccc12)NC(=O)[C@H](CCC(N)=O)NC(=O)[C@H](CS)NC(=O)CNC(=O)CNC(=O)CCC(=O)CNC(=O)CN1CCN(CC(=O)O)CCN(CC(=O)O)CCN(CC(=O)O)CC1)C(C)C)C(=O)N[C@@H](CCSC)C(N)=O [^68Ga-DOTA-ALA-BN Tris-, metal not drawn] ({DOTA}-[X1]GGCQWAV[Cha]H[Nle]M-NH2) , report its Bmax (apparent number of binding sites per cell).
Result: 1.05 × 10^5 sites/cell
